- assayRemarks: 384-well plate pilot, post-Golgi transport modulator project, inhibition of yeast transport mutant growth (AID 636); further: test concentration not given here
- experimentalConditions: absorbance 615 nm, about 18 h, hits give high values
Listed next: entries and their corresponding inhibition.

# compound, inhibition / %
measured = [
    ("O=C(NCc1ccc2c(c1)OCO2)c1cc2n(n1)C(C(F)(F)F)CC(c1ccc3c(c1)OCO3)N2 (stereo not given)", -2.89),
    ("O=C(Nc1ccc2c(c1)OCO2)C1CCCN1C(=O)Nc1ccccc1F (stereo not given)", -2.89),
    ("O=C(C1CCN(S(=O)(=O)N2CCC3(CC2)OCCO3)CC1)N1CCOCC1", 0.92),
    ("CC1Oc2ccccc2N(CC(=O)N(Cc2ccccc2)Cc2ccccn2)C1=O (stereo not given)", -5.54),
    ("CCCN1CCC(NC(=O)Nc2ccc(OC)c(OC)c2)CC1", -1.69),
    ("Cc1ccc(NC(=O)CCC(=O)OCC(F)(F)C(F)F)cc1", -0.65),
    ("Cc1sc2ncnc(OCC(=O)N3CCN(S(=O)(=O)c4ccc(Cl)cc4)CC3)c2c1C", 0.53),
    ("CCNC(=O)CC1C(=O)N(c2ccc(F)cc2)C(=O)N1CCC(C)C (stereo not given)", 0.66),
    ("CC(C)Oc1ccc(-c2nn(-c3ccccc3)cc2/C=c2\\sc3ncnn3c2=O)cc1", 5.92),
    ("COc1ccc(C2CC(c3ccccc3)Nc3nc(NC(=O)c4cccs4)nn32)cc1 (stereo not given)", -1.69),
]
